Every entry's value here was drawn from ChEMBL document CHEMBL1145483.

System: Candida albicans
Procedure details: Antimicrobial activity against Candida albicans SC5314 after 48 hrs by broth macrodilution method
Format: functional
Experimental context: SC5314, 48 h
MIC strictly less than 0.4 µg/mL = condition met. Otherwise condition not met.

Reference set, count: 5
[[record]]
compound = "C[C@H]1CCC/C=C/[C@@H]2C[C@H](O)C[C@H]2[C@H](O)/C=C/C(=O)O1"
label = "condition not met"

[[record]]
compound = "C[C@@H](c1ncncc1F)[C@](O)(Cn1cncn1)c1ccc(F)cc1F"
label = "condition met"

[[record]]
compound = "CC/N=c1\\cc2oc3cc(NCC)c(C)cc3c(-c3ccccc3C(=O)OCC)c-2cc1C.Cl [RHODAMINE 6G HYDROCHLORIDE]"
label = "condition not met"

[[record]]
compound = "Cc1cc(C)nc(NC(=O)NS(=O)(=O)c2ccccc2C(=O)O)n1"
label = "condition not met"

[[record]]
compound = "C/C=C/C/C=C/CCC(=O)[C@H]1O[C@H]1C(N)=O"
label = "condition not met"


Prompt line: Is it true that MIC reported for C[C@@H]1C[C@@H]([C@H](O)CC2CC(=O)NC(=O)C2)C(=O)[C@@H](C)C1 [CYCLOHEXIMIDE] is less than 0.4 µg/mL?
Response line: condition not met

Prompt line: Could you do the same for OC(Cn1cncn1)(Cn1cncn1)c1ccc(F)cc1F , please?
Response line: condition met
